The measurements presented in this section are drawn from patent US4663327A.

Provide the reported MIC of each item.
Test system: Alternaria tenuis
Report as a plain number; the unit µg/mL is understood.

Exercise: Identify measured MIC corresponding to COc1ccc(-c2c[nH]n(-c3ncccn3)c2=O)cc1
Solution: 100

Exercise: Identify measured MIC corresponding to O=c1c(-c2ccccc2Cl)c[nH]n1-c1ncccn1
Solution: 50

Exercise: Identify measured MIC corresponding to O=c1c(-c2ccc(C(F)(F)F)cc2)c[nH]n1-c1ncccn1
Solution: 50

Exercise: Identify measured MIC corresponding to O=c1c(-c2ccc(Cl)cc2)c[nH]n1-c1ncccn1
Solution: 50

Exercise: Identify measured MIC corresponding to Cc1ccc(-c2c[nH]n(-c3ccccn3)c2=O)cc1
Solution: 75

Exercise: Identify measured MIC corresponding to O=c1c(-c2ccccc2F)c[nH]n1-c1ccccn1
Solution: 20

Exercise: Identify measured MIC corresponding to O=c1c(-c2ccccc2)c[nH]n1-c1ccccn1
Solution: 50

Exercise: Identify measured MIC corresponding to COc1ccc(-c2c[nH]n(-c3ccccn3)c2=O)cc1
Solution: 50

Exercise: Identify measured MIC corresponding to O=c1c(-c2ccc(F)cc2)c[nH]n1-c1ncccn1
Solution: 50

Exercise: Identify measured MIC corresponding to Cc1cccc(-c2c[nH]n(-c3ncccn3)c2=O)c1
Solution: 50

Exercise: Identify measured MIC corresponding to O=c1c(-c2ccccc2Br)c[nH]n1-c1ncccn1
Solution: 20

Exercise: Identify measured MIC corresponding to Cc1ccccc1-c1c[nH]n(-c2ccccn2)c1=O
Solution: 10

Exercise: Identify measured MIC corresponding to O=c1c(-c2ccccc2)c[nH]n1-c1ncccn1
Solution: 75

Exercise: Identify measured MIC corresponding to COc1ccccc1-c1c[nH]n(-c2ncccn2)c1=O
Solution: 75

###

test-readout: MIC (µg/mL)
Report as a plain number; the unit µg/mL is understood.

Exercise: For Aureobasidium pullulans, give MIC of the listed compound: O=c1c(-c2ccccc2Cl)c[nH]n1-c1ncccn1
Solution: 20

Exercise: For Aureobasidium pullulans, give MIC of the listed compound: Cc1ccccc1-c1c[nH]n(-c2ccccn2)c1=O
Solution: 35

Exercise: For Aureobasidium pullulans, give MIC of the listed compound: O=c1c(-c2ccc(F)cc2)c[nH]n1-c1ncccn1
Solution: 50

Exercise: For Aureobasidium pullulans, give MIC of the listed compound: O=c1c(-c2ccccc2)c[nH]n1-c1ncccn1
Solution: 50

Exercise: For Aureobasidium pullulans, give MIC of the listed compound: O=c1c(-c2ccc(Cl)cc2)c[nH]n1-c1ncccn1
Solution: 50

###

Observed MIC values for Aureobasidium pullulans are listed in what follows.
Report as a plain number; the unit µg/mL is understood.

Exercise: Identify measured MIC corresponding to O=c1c(-c2ccccc2)c[nH]n1-c1ccccn1 [Example 4, 1-pyrid-2-yl-4-phenyl-pyrazolin-5-one]
Solution: 100

Exercise: Identify measured MIC corresponding to Cc1ccc(-c2c[nH]n(-c3ccccn3)c2=O)cc1 [Example 23]
Solution: 50

Exercise: Identify measured MIC corresponding to COc1ccc(-c2c[nH]n(-c3ccccn3)c2=O)cc1 [Example 15]
Solution: 50

Exercise: Identify measured MIC corresponding to COc1ccc(-c2c[nH]n(-c3ncccn3)c2=O)cc1 [Example 91]
Solution: 150

Exercise: Identify measured MIC corresponding to O=c1c(-c2ccccc2F)c[nH]n1-c1ccccn1 [Example 5]
Solution: 20

Exercise: Identify measured MIC corresponding to O=c1c(-c2ccccc2Br)c[nH]n1-c1ncccn1 [Example 86]
Solution: 20

Exercise: Identify measured MIC corresponding to COc1ccccc1-c1c[nH]n(-c2ncccn2)c1=O [Example 90]
Solution: 75

Exercise: Identify measured MIC corresponding to Cc1cccc(-c2c[nH]n(-c3ncccn3)c2=O)c1 [Example 97]
Solution: 50

Exercise: Identify measured MIC corresponding to O=c1c(-c2ccc(C(F)(F)F)cc2)c[nH]n1-c1ncccn1 [Example 100]
Solution: 50
